test target: human TRPA1 (Homo sapiens)
Construct: expressed in transfected cells; host or cells: CHO cells (G-418 selection)
Sequence (O75762 whole entry): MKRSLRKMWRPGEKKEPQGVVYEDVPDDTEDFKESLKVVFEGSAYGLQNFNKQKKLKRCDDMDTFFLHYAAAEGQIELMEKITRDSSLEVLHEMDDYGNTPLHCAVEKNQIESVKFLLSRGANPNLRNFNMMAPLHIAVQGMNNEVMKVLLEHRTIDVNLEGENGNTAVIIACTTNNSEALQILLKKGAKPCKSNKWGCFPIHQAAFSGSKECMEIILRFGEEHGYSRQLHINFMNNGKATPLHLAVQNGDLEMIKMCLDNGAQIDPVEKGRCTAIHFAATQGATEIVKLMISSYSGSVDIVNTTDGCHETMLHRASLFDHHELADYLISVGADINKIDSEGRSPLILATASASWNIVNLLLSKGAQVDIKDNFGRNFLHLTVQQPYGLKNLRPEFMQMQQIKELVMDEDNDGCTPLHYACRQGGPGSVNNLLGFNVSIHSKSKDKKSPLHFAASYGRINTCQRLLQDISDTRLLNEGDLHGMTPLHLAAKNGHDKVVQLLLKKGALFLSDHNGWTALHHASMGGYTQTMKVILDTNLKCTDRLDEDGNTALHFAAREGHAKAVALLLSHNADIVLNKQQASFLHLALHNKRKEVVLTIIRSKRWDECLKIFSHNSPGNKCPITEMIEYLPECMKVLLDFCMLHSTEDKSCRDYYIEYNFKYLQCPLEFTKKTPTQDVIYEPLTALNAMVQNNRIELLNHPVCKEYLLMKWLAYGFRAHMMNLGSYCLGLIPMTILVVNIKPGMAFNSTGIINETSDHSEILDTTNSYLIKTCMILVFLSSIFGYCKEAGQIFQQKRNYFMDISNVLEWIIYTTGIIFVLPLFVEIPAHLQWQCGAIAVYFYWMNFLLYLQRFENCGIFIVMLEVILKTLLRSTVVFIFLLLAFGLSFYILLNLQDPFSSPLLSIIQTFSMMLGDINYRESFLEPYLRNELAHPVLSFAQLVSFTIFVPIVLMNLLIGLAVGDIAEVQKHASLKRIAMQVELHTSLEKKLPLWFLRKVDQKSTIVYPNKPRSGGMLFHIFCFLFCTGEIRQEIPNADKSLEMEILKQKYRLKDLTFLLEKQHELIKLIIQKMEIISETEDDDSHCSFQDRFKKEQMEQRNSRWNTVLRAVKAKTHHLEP
assay info: 45Calcium uptake assay: inhibition of AITC induced cellular uptake of radioactive calcium, human TRPA1 expressing CHO cells
Format: cell-based
experimental context: 1.0 μM compound, AITC 30 μM, read-out: human TRPA1 Percentage inhibition at 1.0 μM
Experimental: The illustrative examples of the present invention are screened for TRPA1 activity according to a modified procedure described in (a) Tóth, A. et al. Life Sciences, 2003, 73, 487-498. (b) McNamara C, R. et al, Proc. Natl. Acad. Sci. U.S.A., 2007, 104, 13525-13530. […] The inhibition of TRPA1 receptor activation was measured as inhibition of allyl isothiocyanate (AITC) induced cellular uptake of radioactive calcium. […]
parameter measured: inhibition at 1 µM (%)

Cn1c(=O)c2c(CC(=O)Nc3nc(-c4ccc(OC(F)F)c(Br)c4)cs3)coc2n(C)c1=O : 99.3
Cn1c(=O)c2c(CC(=O)Nc3nc(-c4ccc(F)c(F)c4)cs3)coc2n(C)c1=O : 98.8
Cn1c(=O)c2c(CC(=O)Nc3nc(-c4ccc(OCC(F)(F)F)c(F)c4)cs3)coc2n(C)c1=O : 97.4
Cn1c(=O)c2c(CC(=O)Nc3nc(-c4cc(F)cc(C(F)(F)F)c4)cs3)coc2n(C)c1=O : 99.8

---

test target: rat TRPA1 (Rattus norvegicus)
Construct: expressed in transfected cells; host or cells: CHO cells (Zeocin selection)
Sequence (Q6RI86 whole entry): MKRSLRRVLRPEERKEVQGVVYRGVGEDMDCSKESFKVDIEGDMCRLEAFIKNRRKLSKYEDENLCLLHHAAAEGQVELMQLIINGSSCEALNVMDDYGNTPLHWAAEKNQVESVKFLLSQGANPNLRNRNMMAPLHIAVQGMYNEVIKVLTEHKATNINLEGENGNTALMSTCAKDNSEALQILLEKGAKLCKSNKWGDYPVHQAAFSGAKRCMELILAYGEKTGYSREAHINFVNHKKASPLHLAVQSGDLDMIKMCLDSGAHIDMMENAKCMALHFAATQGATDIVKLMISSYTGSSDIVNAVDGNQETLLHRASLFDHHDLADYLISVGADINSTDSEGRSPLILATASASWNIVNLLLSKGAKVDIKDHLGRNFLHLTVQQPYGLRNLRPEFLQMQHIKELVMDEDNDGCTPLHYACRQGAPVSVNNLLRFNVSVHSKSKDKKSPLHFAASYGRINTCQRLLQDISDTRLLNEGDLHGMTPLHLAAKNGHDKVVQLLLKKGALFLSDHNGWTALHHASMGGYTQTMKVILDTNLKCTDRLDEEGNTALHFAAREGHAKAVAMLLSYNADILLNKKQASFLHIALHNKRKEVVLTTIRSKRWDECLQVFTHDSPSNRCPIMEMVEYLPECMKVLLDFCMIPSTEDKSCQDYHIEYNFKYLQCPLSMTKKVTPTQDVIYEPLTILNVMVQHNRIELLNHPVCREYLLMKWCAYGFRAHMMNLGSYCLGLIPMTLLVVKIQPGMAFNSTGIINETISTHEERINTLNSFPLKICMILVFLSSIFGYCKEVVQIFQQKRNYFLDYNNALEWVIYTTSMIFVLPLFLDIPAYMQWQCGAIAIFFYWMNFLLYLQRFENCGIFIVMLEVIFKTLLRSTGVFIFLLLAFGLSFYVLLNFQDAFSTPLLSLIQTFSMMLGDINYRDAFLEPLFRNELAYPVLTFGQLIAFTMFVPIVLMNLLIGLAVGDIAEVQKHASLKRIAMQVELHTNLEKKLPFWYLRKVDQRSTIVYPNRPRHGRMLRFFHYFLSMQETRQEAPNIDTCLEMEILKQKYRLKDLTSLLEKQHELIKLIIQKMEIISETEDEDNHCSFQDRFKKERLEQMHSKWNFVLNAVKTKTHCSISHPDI
assay info: 45Calcium uptake assay: inhibition of AITC induced cellular uptake of radioactive calcium, rat TRPA1 expressing CHO cells
Type: cell-based
experimental context: AITC 10 μM, read-out: rat TRPA1 Percentage inhibition
parameter measured: inhibition at 1 µM (%)

Cc1oc2c(c1CC(=O)Nc1nc(-c3ccc(F)c(Cl)c3F)cs1)c(=O)n(C)c(=O)n2C : 94.5
Cc1oc2c(c1CC(=O)Nc1nc(-c3cccc(OC(F)(F)F)c3)cs1)c(=O)n(C)c(=O)n2C : 100
Cc1oc2c(c1CC(=O)Nc1nc(-c3ccc(F)c(F)c3F)cs1)c(=O)n(C)c(=O)n2C : 99.2
Cc1oc2c(c1CC(=O)Nc1nc(-c3ccc(C(F)(F)F)cc3F)cs1)c(=O)n(C)c(=O)n2C : 99.3
CC(C)COc1c(Cl)cc(-c2csc(NC(=O)Cc3coc4c3c(=O)n(C)c(=O)n4C)n2)cc1Cl : 99.5
Cc1oc2c(c1CC(=O)Nc1nc(-c3cc(F)c(OCC(C)C)c(F)c3)cs1)c(=O)n(C)c(=O)n2C : 100
Cc1oc2c(c1CC(=O)Nc1nc(-c3ccc(OCC(F)(F)F)c(Cl)c3)cs1)c(=O)n(C)c(=O)n2C : 100
Cn1c(=O)c2c(CC(=O)Nc3nc(-c4ccc(F)c(Br)c4)cs3)coc2n(C)c1=O : 97.5
Cc1oc2c(c1CC(=O)Nc1nc(-c3ccc(OC(F)F)c(Cl)c3)cs1)c(=O)n(C)c(=O)n2C : 100
Cc1oc2c(c1CC(=O)Nc1nc(-c3cc(Cl)c(OCC(F)(F)F)c(Cl)c3)cs1)c(=O)n(C)c(=O)n2C : 98.3
Cc1oc2c(c1CC(=O)Nc1nc(-c3cc(F)c(OC(F)F)c(F)c3)cs1)c(=O)n(C)c(=O)n2C : 100
Cn1c(=O)c2c(CC(=O)Nc3nc(-c4cccc(C(F)(F)F)c4F)cs3)coc2n(C)c1=O : 96.8
Cn1c(=O)c2c(CC(=O)Nc3nc(-c4ccc(OCC(C)(C)C)c(Br)c4)cs3)coc2n(C)c1=O : 98.5
Cn1c(=O)c2c(CC(=O)Nc3nc(-c4ccc(OCC(F)(F)F)c(Cl)c4)cs3)coc2n(C)c1=O : 96.8
Cn1c(=O)c2c(CC(=O)Nc3nc(-c4cc(F)c(OCCC(F)(F)F)c(F)c4)cs3)coc2n(C)c1=O : 86.6
